Could you please report measured Emax for the items listed next?
- system: E. coli iPGM (Escherichia coli, UniProt P37689)
- Sequence (P37689 whole entry, looked up): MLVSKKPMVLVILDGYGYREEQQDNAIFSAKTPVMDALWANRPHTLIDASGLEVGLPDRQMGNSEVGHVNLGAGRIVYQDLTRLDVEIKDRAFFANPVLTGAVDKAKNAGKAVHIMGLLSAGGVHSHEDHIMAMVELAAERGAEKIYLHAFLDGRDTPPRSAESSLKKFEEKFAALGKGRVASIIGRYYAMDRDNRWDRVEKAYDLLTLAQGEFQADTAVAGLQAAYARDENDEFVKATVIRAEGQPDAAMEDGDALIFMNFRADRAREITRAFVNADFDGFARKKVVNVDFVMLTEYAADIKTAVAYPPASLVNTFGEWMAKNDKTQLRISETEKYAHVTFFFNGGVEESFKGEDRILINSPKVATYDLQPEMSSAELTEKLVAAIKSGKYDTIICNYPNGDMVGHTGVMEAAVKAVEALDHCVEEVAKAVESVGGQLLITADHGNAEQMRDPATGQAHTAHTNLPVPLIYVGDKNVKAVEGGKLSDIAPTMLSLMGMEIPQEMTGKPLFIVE
- assay: biochemical
- assay setup: read-out: E. coli iPGM Max Inhibition
Where a SMILES comes first, the peptide text is derived from it. Bridges are numbered along the chain shown (N, C = ends). [ ]: non-standard residue; d: D form.
Answer format: numeric, % implied, no suffix.

Recorded Emax for CC(C)[C@@H]1NC(=O)[C@H](C)NC(=O)[C@@H](Cc2ccc(O)cc2)NC(=O)CSC[C@@H](C(=O)N[C@@H](CCCNC(=N)N)C(=O)N[C@H](C(=O)N[C@@H](CS)C(=O)NCC(N)=O)[C@@H](C)O)NC(=O)[C@H](CC(N)=O)NC(=O)[C@@H]2CCCN2C(=O)[C@H](Cc2c[nH]c3ccccc23)NC1=O [Bm-7] ({CH2CO}-[dY]AVWPNCRTCG-NH2; thioether N-7) , please?
69.7

Now this one: CC(C)C[C@@H]1NC(=O)[C@@H](Cc2ccc(O)cc2)NC(=O)CSC[C@@H](C(=O)N[C@@H](CC(N)=O)C(=O)N[C@H](C(=O)N[C@@H](CS)C(=O)NCC(N)=O)[C@@H](C)O)NC(=O)[C@H](CC(N)=O)NC(=O)[C@@H]2CCCN2C(=O)[C@H](Cc2c[nH]c3ccccc23)NC(=O)[C@H](CCC(=O)O)NC1=O [Bm-4] ({CH2CO}-[dY]LEWPNCNTCG-NH2; thioether N-7)
76.3

Now this one: CC(C)C[C@H](NC(=O)[C@H](Cc1ccc(O)cc1)NC(=O)[C@@H]1CSCC(=O)N[C@H](Cc2ccc(O)cc2)C(=O)N[C@@H](CC(=O)O)C(=O)N[C@@H](Cc2ccc(O)cc2)C(=O)N2CCC[C@H]2C(=O)NCC(=O)N[C@@H](CC(=O)O)C(=O)N[C@@H](Cc2ccc(O)cc2)C(=O)N1)C(=O)N[C@@H](Cc1ccc(O)cc1)C(=O)NCC(N)=O
89.1

----------
Could you please report measured pIC50 B. malayi iPGM for the items listed next?
- system: B. malayi iPGM (Brugia malayi)
- Sequence (Q4VWF8 whole entry, looked up): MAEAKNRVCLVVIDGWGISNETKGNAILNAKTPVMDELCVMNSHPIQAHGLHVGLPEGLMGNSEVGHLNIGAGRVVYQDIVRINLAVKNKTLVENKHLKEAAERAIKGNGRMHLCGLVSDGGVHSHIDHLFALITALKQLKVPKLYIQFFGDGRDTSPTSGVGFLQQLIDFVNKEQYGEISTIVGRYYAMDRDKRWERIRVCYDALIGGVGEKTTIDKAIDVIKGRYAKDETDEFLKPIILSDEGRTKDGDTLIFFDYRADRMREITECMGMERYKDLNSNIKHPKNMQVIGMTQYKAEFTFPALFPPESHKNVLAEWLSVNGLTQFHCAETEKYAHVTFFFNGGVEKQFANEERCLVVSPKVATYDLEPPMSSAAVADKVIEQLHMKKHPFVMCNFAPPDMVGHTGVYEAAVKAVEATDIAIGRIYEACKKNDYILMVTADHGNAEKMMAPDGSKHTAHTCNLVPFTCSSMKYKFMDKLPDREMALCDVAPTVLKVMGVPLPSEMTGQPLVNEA
- assay: biochemical
Where a SMILES comes first, the peptide text is derived from it. Bridges are numbered along the chain shown (N, C = ends). [ ]: non-standard residue; d: D form.

Recorded pIC50 B. malayi iPGM for C[C@@H](O)[C@H](NC(=O)[C@H](CO)NC(=O)[C@@H]1CSCC(=O)N[C@H](Cc2ccc(O)cc2)C(=O)N2CCC[C@H]2C(=O)N[C@@H](CCC(=O)O)C(=O)N[C@@H](Cc2c[nH]c3ccccc23)C(=O)N2CCC[C@H]2C(=O)N[C@@H](CC(N)=O)C(=O)N1)C(=O)N[C@@H](CS)C(=O)NCC(N)=O [Bm-6] ({CH2CO}-[dY]PEWPNCSTCG-NH2; thioether N-7) , please?
6.16

Now this one: CC(C)C[C@@H]1NC(=O)[C@@H](Cc2ccc(O)cc2)NC(=O)CSC[C@@H](C(=O)N[C@@H](CC(N)=O)C(=O)N[C@H](C(=O)N[C@@H](CS)C(=O)NCC(N)=O)[C@@H](C)O)NC(=O)[C@H](CC(N)=O)NC(=O)[C@@H]2CCCN2C(=O)[C@H](Cc2c[nH]c3ccccc23)NC(=O)[C@H](CCC(=O)O)NC1=O [Bm-4] ({CH2CO}-[dY]LEWPNCNTCG-NH2; thioether N-7)
6.24

Now this one: CC(C)[C@@H]1NC(=O)[C@H](C)NC(=O)[C@@H](Cc2ccc(O)cc2)NC(=O)CSC[C@@H](C(=O)N[C@@H](CCCNC(=N)N)C(=O)N[C@H](C(=O)N[C@@H](CS)C(=O)NCC(N)=O)[C@@H](C)O)NC(=O)[C@H](CC(N)=O)NC(=O)[C@@H]2CCCN2C(=O)[C@H](Cc2c[nH]c3ccccc23)NC1=O [Bm-7] ({CH2CO}-[dY]AVWPNCRTCG-NH2; thioether N-7)
5.28

Now this one: CC(C)C[C@@H]1NC(=O)[C@@H](Cc2ccc(O)cc2)NC(=O)CSC[C@@H](C(=O)N[C@@H](CO)C(=O)N[C@H](C(=O)N[C@@H](CS)C(=O)NCC(N)=O)[C@@H](C)O)NC(=O)[C@H](CC(N)=O)NC(=O)[C@@H]2CCCN2C(=O)[C@H](Cc2c[nH]c3ccccc23)NC(=O)[C@H](CC(=O)O)NC1=O [Bm-5] ({CH2CO}-[dY]LDWPNCSTCG-NH2; thioether N-7)
6.16

Now this one: CC[C@H](C)[C@@H]1NC(=O)[C@H](CCC(=O)O)NC(=O)[C@@H]2CCCN2C(=O)[C@H](C)NC(=O)[C@H](CC(N)=O)NC(=O)[C@@H]2CCCN2C(=O)[C@H](Cc2c[nH]c3ccccc23)NC(=O)[C@H](CO)NC(=O)[C@@H](Cc2ccc(O)cc2)NC(=O)CSC[C@@H](C(=O)N[C@@H](CS)C(=O)NCC(N)=O)NC(=O)[C@H](CCCCN)NC(=O)[C@H](Cc2c[nH]c3ccccc23)NC1=O [Bm-1] ({CH2CO}-[dY]SWPNAPEIWKCCG-NH2; thioether N-12)
5.89
